Listed next: entries and their corresponding activity coefficient.
assay: activity coefficient (dimensionless); of the first substance listed, at infinite dilution; xn = mol fraction of the nth substance listed; settings: 298.15 K; 238 kPa; Liquid; Chromatography; x1 = 0
parameter: activity coefficient

{"molecule": "CCCCCCCC [octane] + CC#N", "parameter": "activity coefficient", "observed": 52.3}
{"molecule": "Cc1ccccc1 [toluene] + CC(C)=O", "parameter": "activity coefficient", "observed": 2.01}
{"molecule": "CCCCCCCC [octane] + CC(C)=O", "parameter": "activity coefficient", "observed": 10.7}
{"molecule": "Cc1ccccc1 [toluene] + CC#N", "parameter": "activity coefficient", "observed": 3.95}
